tested on: KM12 colon; assay: NCI tumour cell line growth inhibition, 48 h
Property: TGI; scope: individual compounds

Example entries and their recorded answers appear below.
[
  {
    "compound": "Cc1ccc(S(=O)(=O)N/N=C2\\C3CC4CC(C3)C2C4)cc1 (centres undefined)",
    "measured-result": "> 100 µM"
  },
  {
    "compound": "CCOC(=O)c1nc2ccccc2nc1NCc1ccc(Cl)cc1Cl",
    "measured-result": "> 100 µM"
  },
  {
    "compound": "COC1=CC(=O)C2=C(C1=O)[C@H]1CC[C@]3(C)[C@@H](OC(C)=O)CC[C@H]3[C@@H]1CC2",
    "measured-result": "> 100 µM"
  },
  {
    "compound": "CC1(C)C2CCC13C(=O)C1OC3(C2)C2C(=O)c3c(O)cccc3C(=O)C12 (centres undefined)",
    "measured-result": "14.9 µM"
  },
  {
    "compound": "CCCCCCCCCCCCCCCCS(=O)(=O)c1ccc(NN)cc1",
    "measured-result": "> 10 µM"
  }
]

Exercise: Query (compound): CC(=O)O[C@H]1C(=O)N(c2cc3c4ccccc4ccc3c3ccccc23)[C@@H]1c1ccccc1 ; field requested: TGI
Solution: 27.1 µM

Exercise: Query (compound): O=C1C=C(N2CCN(c3ccccn3)CC2)C(=O)c2c(O)ccc(O)c21 ; field requested: TGI
Solution: > 46.4 µM

Exercise: Query (compound): CC(C)(C)[Si](C)(C)OCC1OC(n2cnc3c(N)ncnc32)C(O)C1O (centres undefined) ; field requested: TGI
Solution: > 100 µM

----------
tested on: PC-3 prostate; test: NCI tumour cell line growth inhibition, 48 h
value-kind: TGI

Example entries and their recorded answers appear below.
[
  {
    "compound": "COc1ccccc1/C=C\\C(=O)c1ccccc1",
    "TGI": "23 µM"
  },
  {
    "compound": "CC1(C)CCC2(C(=O)OC3OC(CO)C(O)C(O)C3O)CCC3(CO)C(=CCC4C5(C)CC(O)C(O)C(C)(C(=O)OC6OC(CO)C(O)C(O)C6O)C5CCC43C)C2C1 (configuration not stated)",
    "TGI": "> 100 µM"
  },
  {
    "compound": "O=[N+]([O-])c1ccc(NS(=O)(=O)C(F)(F)F)cc1",
    "TGI": "> 100 µM"
  },
  {
    "compound": "CCOC(=O)CCCn1cc(C(=O)OC)nn1",
    "TGI": "> 100 µM"
  },
  {
    "compound": "CC(C)(C)c1ccc(-c2nnc(-c3cc(C#N)cc(-c4nnc(-c5ccc(C(C)(C)C)cc5)o4)c3)o2)cc1",
    "TGI": "> 100 µM"
  }
]

Exercise: Query (compound): CC[C@@]1(O)C(=O)OCc2c1cc1n(c2=O)Cc2cc3c(N)cccc3nc2-1 ; field requested: TGI
Solution: > 100 µM

Exercise: Query (compound): CC/C(Cl)=N\OC(=O)Nc1ccc(F)cc1F ; field requested: TGI
Solution: 33.3 µM

Exercise: Query (compound): COC1=CC(=O)C2=C(C1=O)[C@H]1CC[C@]3(C)[C@@H](OC(C)=O)CC[C@H]3[C@@H]1CC2 ; field requested: TGI
Solution: > 100 µM

Exercise: Query (compound): O=C(Nc1ccc(Cl)cc1)Nc1ccccc1CNc1nc(Nc2ccc(OCCN3CCCC3)cc2)ncc1Cl ; field requested: TGI
Solution: 2.35 µM

Exercise: Query (compound): COc1cccc(CN(C(=O)/C=C\Sc2ccccc2)C(C)(C)C)c1 ; field requested: TGI
Solution: > 100 µM

Exercise: Query (compound): O=S(=O)(O)C1CCC(O)C2[N-]CCCC21.O=S(=O)(O)C1CCC(O)C2[N-]CCCC21.[Zn+2] (configuration not stated) ; field requested: TGI
Solution: > 100 µM

Exercise: Query (compound): Cn1cnc([N+](=O)[O-])c1Sc1nc(N)nc2nc[nH]c12 ; field requested: TGI
Solution: > 100 µM
